measured.target: Estrogen receptor (Mus musculus) (UniProt O08537+P19785)
Sequence (O08537 whole entry, looked up): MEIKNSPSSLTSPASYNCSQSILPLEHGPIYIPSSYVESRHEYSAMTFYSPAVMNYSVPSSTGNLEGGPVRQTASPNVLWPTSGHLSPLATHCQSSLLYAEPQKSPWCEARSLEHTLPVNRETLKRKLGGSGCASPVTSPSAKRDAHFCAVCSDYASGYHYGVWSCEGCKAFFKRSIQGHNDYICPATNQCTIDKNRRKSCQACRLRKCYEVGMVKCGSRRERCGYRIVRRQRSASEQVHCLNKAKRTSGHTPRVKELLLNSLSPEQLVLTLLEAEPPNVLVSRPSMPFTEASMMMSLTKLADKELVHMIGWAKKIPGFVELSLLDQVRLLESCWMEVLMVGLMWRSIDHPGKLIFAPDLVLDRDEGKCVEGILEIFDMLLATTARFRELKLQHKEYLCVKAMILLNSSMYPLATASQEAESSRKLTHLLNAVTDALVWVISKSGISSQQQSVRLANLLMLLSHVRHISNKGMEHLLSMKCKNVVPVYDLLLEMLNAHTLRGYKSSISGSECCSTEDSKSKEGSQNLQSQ
Sequence (P19785 whole entry, looked up): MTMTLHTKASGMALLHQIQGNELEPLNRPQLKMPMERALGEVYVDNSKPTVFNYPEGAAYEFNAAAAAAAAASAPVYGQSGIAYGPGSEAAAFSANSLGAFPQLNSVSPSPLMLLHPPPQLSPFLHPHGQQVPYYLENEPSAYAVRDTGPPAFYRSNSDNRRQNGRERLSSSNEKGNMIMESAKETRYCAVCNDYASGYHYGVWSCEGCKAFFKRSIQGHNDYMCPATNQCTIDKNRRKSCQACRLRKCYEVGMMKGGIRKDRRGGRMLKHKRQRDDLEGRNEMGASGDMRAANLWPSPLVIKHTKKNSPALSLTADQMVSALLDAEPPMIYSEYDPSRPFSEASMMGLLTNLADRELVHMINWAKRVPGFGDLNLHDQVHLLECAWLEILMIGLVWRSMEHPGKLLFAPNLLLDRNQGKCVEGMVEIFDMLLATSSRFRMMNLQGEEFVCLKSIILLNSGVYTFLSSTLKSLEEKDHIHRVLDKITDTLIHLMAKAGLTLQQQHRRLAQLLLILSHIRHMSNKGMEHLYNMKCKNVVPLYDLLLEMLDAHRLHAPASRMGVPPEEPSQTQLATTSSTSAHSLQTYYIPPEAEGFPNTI
assay: Relative binding affinity for murine cytoplasmic estrogen receptor as displacement of [3H]estradiol
Type: protein assay
Mark each entry yes if its relative binding affinity (RBA) sits below 30, and no for all others.

Example entries and their recorded answers appear below.
CCO[C@H]1C[C@@]2(C)[C@@H](CC[C@@]2(O)/C=C/I)[C@@H]2CCc3cc(O)ccc3[C@H]21: yes
CO[C@H]1C[C@@]2(C)[C@@H](CC[C@@]2(O)/C=C/I)[C@@H]2CCc3cc(O)ccc3[C@H]21: yes
CO[C@H]1C[C@@]2(C)[C@@H](CC[C@@]2(O)/C=C\I)[C@@H]2CCc3cc(O)ccc3[C@H]21: no
C[C@@H]1Cc2cc(O)ccc2[C@H]2CC[C@@]3(C)[C@@H](CC[C@@]3(O)/C=C\I)[C@H]12: no
C[C@@H]1Cc2cc(O)ccc2[C@H]2CC[C@@]3(C)[C@@H](CC[C@@]3(O)/C=C/I)[C@H]12: no
C#C[C@]1(O)CC[C@H]2[C@@H]3[C@H](C)Cc4cc(O)ccc4[C@H]3CC[C@@]21C: no
C=C[C@]1(O)CC[C@H]2[C@@H]3CCc4cc(O)ccc4[C@H]3[C@@H](OC)C[C@@]21C: yes

Now for another entry.
Does this compound meet the criterion relative binding affinity (RBA) < 30? C#C[C@]1(O)CC[C@H]2[C@@H]3CCc4cc(O)ccc4[C@H]3[C@@H](OC)C[C@@]21C
yes

====

measured.target: Estrogen receptor (Mus musculus) (UniProt O08537+P19785)
assay: Relative binding affinity for murine cytoplasmic estrogen receptor as displacement of [3H]estradiol
Type: protein assay
assay.metric: relative binding affinity (RBA)
Enter a number only.

C=C[C@]1(O)CC[C@H]2[C@@H]3[C@H](C)Cc4cc(O)ccc4[C@H]3CC[C@@]21C: 58.1
C[C@]12CC[C@@H]3c4ccc(O)cc4CC[C@H]3[C@@H]1CC[C@@]2(O)/C=C\I: 46.7
C#C[C@]1(O)CC[C@H]2[C@@H]3CCc4cc(O)ccc4[C@H]3[C@@H](OCC)C[C@@]21C: 21
CCO[C@H]1C[C@@]2(C)[C@@H](CC[C@@]2(O)/C=C\I)[C@@H]2CCc3cc(O)ccc3[C@H]21: 30.8

Shift focus to the following entry.
# lookup: relative binding affinity (RBA) of C[C@]12CC[C@@H]3c4ccc(O)cc4CC[C@H]3[C@@H]1CC[C@@]2(O)/C=C/I
32.8
